tested-system: DLL3 endogenously expressed on NCI-H82 cells (UniProt Q9NYJ7)
Sequence (Q9NYJ7 27-618): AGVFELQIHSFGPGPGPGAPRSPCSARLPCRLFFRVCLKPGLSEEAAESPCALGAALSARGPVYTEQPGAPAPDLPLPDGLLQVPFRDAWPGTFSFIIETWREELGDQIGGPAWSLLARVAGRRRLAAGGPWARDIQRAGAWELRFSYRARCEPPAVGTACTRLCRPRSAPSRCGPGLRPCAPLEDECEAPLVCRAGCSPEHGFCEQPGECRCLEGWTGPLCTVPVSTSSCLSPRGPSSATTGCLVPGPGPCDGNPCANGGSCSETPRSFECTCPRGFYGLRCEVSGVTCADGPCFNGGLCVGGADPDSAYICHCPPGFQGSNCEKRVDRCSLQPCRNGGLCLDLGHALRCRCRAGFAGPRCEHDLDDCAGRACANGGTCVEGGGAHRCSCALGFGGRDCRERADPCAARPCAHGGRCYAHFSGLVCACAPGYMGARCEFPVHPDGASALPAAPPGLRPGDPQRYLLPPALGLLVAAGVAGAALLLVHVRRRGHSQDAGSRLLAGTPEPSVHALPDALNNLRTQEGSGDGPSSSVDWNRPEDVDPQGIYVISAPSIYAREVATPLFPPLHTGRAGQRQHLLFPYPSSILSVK
method-summary: FACS on NCI-H82 cells; antibody 0.8 nM
measured-metric: MFI
Format: numeric value only, no unit, no commentary.

Guide cases for MFI, answers given:
| binder | MFI |
| --- | --- |
| Hab015VL5VH5a-hFc (scFv, part only; not given: scFv linker and human IgG1 Fc, V domains shown, not shown: another chain or arm of the molecule; a dimerising Fc or GST; small tags and cut ends) VL: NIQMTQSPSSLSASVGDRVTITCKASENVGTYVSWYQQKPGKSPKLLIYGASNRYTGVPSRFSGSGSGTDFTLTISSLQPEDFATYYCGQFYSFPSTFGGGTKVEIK VH: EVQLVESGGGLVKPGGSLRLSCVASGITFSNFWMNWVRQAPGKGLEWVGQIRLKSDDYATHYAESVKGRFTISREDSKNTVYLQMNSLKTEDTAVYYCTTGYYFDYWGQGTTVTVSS | 779 |
| Hab006VL1VH4-hFc (scFv, part only; not given: VL-VH linker and human IgG1 Fc, V domains shown, not shown: another chain or arm of the molecule; a dimerising Fc or GST; small tags and cut ends) VL: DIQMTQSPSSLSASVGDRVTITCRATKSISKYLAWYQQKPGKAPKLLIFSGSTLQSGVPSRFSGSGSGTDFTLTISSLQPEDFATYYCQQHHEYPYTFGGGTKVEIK VH: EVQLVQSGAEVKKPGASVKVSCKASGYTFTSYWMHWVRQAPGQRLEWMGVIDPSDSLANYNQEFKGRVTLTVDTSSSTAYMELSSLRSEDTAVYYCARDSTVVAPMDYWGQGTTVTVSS | 412 |
| mab015 scFv-hFc (Fc fusion, part only; not given: linker and human IgG1 Fc, not shown: a dimerising Fc or GST) chain, part: NIVMTQSPKSMSMSVGERVTLSCKASENVGTYVSWFQQKPEQSPKLLIYGASNRYTGVPDRFTGSGSATDFTLTISSVQAEDLADYHCGQFYSFPCTFGGGTKLEIKEVKLEESGGGLVQPGGSMKLSCVASGITFSNFWMNWVRQSPEKGLEWVAQIRLKSDDYATHYAESVKGRFTISRDDSKGSVYLQMNNLRTEDTGIHYCTTGYYFDYWGQGTTLTVSS | 1120 |

Problem: Please indicate MFI recorded for mab006 scFv-hFc (Fc fusion, part only; not given: linker and human IgG1 Fc, not shown: a dimerising Fc or GST) chain, part: DVQITQSPSYLAASPGETITINCRATKSISKYLAWYQEKPGKTNKLLIFSGSTLQSGIPSRFRGSGSGTDFTLTISSLEPEDFAMYYCQQHHEYPYTFGGGTKLEIKQVQLQQPGAELVRPGTSVKLSCKASGYTFTSYWMHWVRQRPGQGLEWIGVIDPSDSLANYNQEFKGKATLTVDTSSSTAYMQLSSLTSEDSAVYYCARDSTVVAPMDYWGQGTSVTVSS
Result: 422
